Listing of entries alongside the reported SH2 binding enrichment.
# assay_target: SHP2-C SH2;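 also: peptide library displayed on the E. coli surface as eCPX fusions, selected cells deep-sequenced, score is each peptide's frequency after selection divided by its frequency in the input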
# experimental_protocol: SH2 binding enrichment of the phosphorylated peptide, bacterial display (enrichment ratio); higher = better substrate or ligand; peptides without Tyr show the background

>  <chain_sequence>
CERFSYYGMKA [SLC15A2_Y60]

>  <SH2 binding enrichment>
0.799

$$$$
>  <chain_sequence>
DGFTDYAEFAK [MCFD2_Y138_I136T_YF]

>  <SH2 binding enrichment>
0.864

$$$$
>  <chain_sequence>
PAGSGYPAYLG [ATP6V1A_Y374_D371G]

>  <SH2 binding enrichment>
0.688

$$$$
>  <chain_sequence>
QRVLLYVQRET [GRHL3_Y518_R520Q]

>  <SH2 binding enrichment>
1.52

$$$$
>  <chain_sequence>
DLTQDYEEWKR [ORC6_Y232]

>  <SH2 binding enrichment>
0.647

$$$$
>  <chain_sequence>
HKANEYYPVVI [ADAMTS18_Y764_L769I]

>  <SH2 binding enrichment>
1.06

$$$$
>  <chain_sequence>
RTLSEYARRHV [RERE_Y1259_P1262R]

>  <SH2 binding enrichment>
0.567

$$$$
>  <chain_sequence>
NAPNSYGRRLI [CDKN2A_Y44_P48L]

>  <SH2 binding enrichment>
0.32

$$$$
>  <chain_sequence>
YETSHYLASPD [CTNND2_Y1217_P1218L]

>  <SH2 binding enrichment>
0.675

$$$$
>  <chain_sequence>
LGRTRYQDVTG [MIPEP_Y510_H512D]

>  <SH2 binding enrichment>
0.95

$$$$
>  <chain_sequence>
LPENPYHSRPR [NDUFA8_Y142]

>  <SH2 binding enrichment>
0.637

$$$$
>  <chain_sequence>
RREQDYTNLPS [CSF1R_Y923_R921Q]

>  <SH2 binding enrichment>
0.821

$$$$
>  <chain_sequence>
KVQVSYKGETK [HSPA1A_Y107]

>  <SH2 binding enrichment>
0.656

$$$$
>  <chain_sequence>
LGGAMYYLEAE [PKHD1_Y452]

>  <SH2 binding enrichment>
0.657

$$$$
